- conditions-used: in n-hexanol, 298.15 K
observation-type: solubility (mole fraction)

structure_string=O=C(O[C@@H]1Cc2c(O)cc(O)cc2O[C@@H]1c1cc(O)c(O)c(O)c1)c1cc(O)c(O)c(O)c1 observation_type="solubility (mole fraction)" endpoint_result=1.79e-05

====

- conditions-used: in sec-butanol, 318.15 K
observation-type: solubility (mole fraction)

structure_string=O=C(O[C@@H]1Cc2c(O)cc(O)cc2O[C@@H]1c1cc(O)c(O)c(O)c1)c1cc(O)c(O)c(O)c1 endpoint_result=0.000636

====

- conditions-used: in n-hexanol, 288.15 K
observation-type: solubility (mole fraction)

structure_string=O=C(O[C@@H]1Cc2c(O)cc(O)cc2O[C@@H]1c1cc(O)c(O)c(O)c1)c1cc(O)c(O)c(O)c1 endpoint_result=3.87e-06

====

- conditions-used: in ethanol, 308.15 K
observation-type: solubility (mole fraction)

structure_string=O=C(O[C@@H]1Cc2c(O)cc(O)cc2O[C@@H]1c1cc(O)c(O)c(O)c1)c1cc(O)c(O)c(O)c1 observation_type="solubility (mole fraction)" endpoint_result=0.000387

====

- conditions-used: in isopropanol, 288.15 K
observation-type: solubility (mole fraction)

structure_string=O=C(O[C@@H]1Cc2c(O)cc(O)cc2O[C@@H]1c1cc(O)c(O)c(O)c1)c1cc(O)c(O)c(O)c1 observation_type="solubility (mole fraction)" endpoint_result=1.67e-05

====

- conditions-used: in methanol, 288.15 K
observation-type: solubility (mole fraction)

structure_string=O=C(O[C@@H]1Cc2c(O)cc(O)cc2O[C@@H]1c1cc(O)c(O)c(O)c1)c1cc(O)c(O)c(O)c1 endpoint_result=1.65e-05

====

- conditions-used: in n-pentanol, 278.15 K
observation-type: solubility (mole fraction)

structure_string=O=C(O[C@@H]1Cc2c(O)cc(O)cc2O[C@@H]1c1cc(O)c(O)c(O)c1)c1cc(O)c(O)c(O)c1 observation_type="solubility (mole fraction)" endpoint_result=9.9e-07

====

- conditions-used: in 2-ethoxyethanol, 318.15 K
observation-type: solubility (mole fraction)

structure_string=O=C(O[C@@H]1Cc2c(O)cc(O)cc2O[C@@H]1c1cc(O)c(O)c(O)c1)c1cc(O)c(O)c(O)c1 observation_type="solubility (mole fraction)" endpoint_result=0.0701

====

- conditions-used: in 2-butoxyethanol, 288.15 K
observation-type: solubility (mole fraction)

structure_string=O=C(O[C@@H]1Cc2c(O)cc(O)cc2O[C@@H]1c1cc(O)c(O)c(O)c1)c1cc(O)c(O)c(O)c1 observation_type="solubility (mole fraction)" endpoint_result=0.00195

====

- conditions-used: in sec-butanol, 288.15 K
observation-type: solubility (mole fraction)

structure_string=O=C(O[C@@H]1Cc2c(O)cc(O)cc2O[C@@H]1c1cc(O)c(O)c(O)c1)c1cc(O)c(O)c(O)c1 endpoint_result=2.12e-05

====

- conditions-used: in n-propanol, 278.15 K
observation-type: solubility (mole fraction)

structure_string=O=C(O[C@@H]1Cc2c(O)cc(O)cc2O[C@@H]1c1cc(O)c(O)c(O)c1)c1cc(O)c(O)c(O)c1 endpoint_result=1.22e-05

====

- conditions-used: in 2-methoxyethanol, 288.15 K
observation-type: solubility (mole fraction)

structure_string=O=C(O[C@@H]1Cc2c(O)cc(O)cc2O[C@@H]1c1cc(O)c(O)c(O)c1)c1cc(O)c(O)c(O)c1 endpoint_result=0.0254
